System: K562 (chronic myelogenous leukaemia)
Assay: Effect of compounds on tumor cell lines (assay of Latham et al.), K562
Type: cell-based
Conditions: K562 cells, 96 hours after treatment, 1 μM to 100 μM; read-out: K 562 potency (IC50)
Recorded IC50 values for a group of compounds are listed next.
recorded endpoint: IC50

compound=CCOc1ccc(C=C(SCc2ccc(C)cc2)C(=O)c2ccc(Cl)cc2)cc1OC measurement_target="K562 (chronic myelogenous leukaemia)" recorded_endpoint=IC50 experimental_value="25 to 50 µM"
compound=O=C(O)c1ccc(C(=O)C(=Cc2ccc(F)c([N+](=O)[O-])c2)SCc2ccccc2Cl)cc1 measurement_target="K562 (chronic myelogenous leukaemia)" recorded_endpoint=IC50 experimental_value="1 to 10 µM"
compound=COc1ccc(C=C(SCc2ccc(Cl)cc2)C(=O)c2ccc(Cl)cc2)cc1 measurement_target="K562 (chronic myelogenous leukaemia)" recorded_endpoint=IC50 experimental_value="1 to 10 µM"
compound="Cc1ccc(CS/C(=C/c2ccc(F)c([N+](=O)[O-])c2)C(=O)c2ccc(C(=O)O)cc2)cc1 [Example 348]" measurement_target="K562 (chronic myelogenous leukaemia)" recorded_endpoint=IC50 experimental_value="1 to 10 µM"
compound=COc1cc(OC)c(C=C(SCc2ccccc2Cl)C(=O)c2ccc(Cl)cc2)c(OC)c1 measurement_target="K562 (chronic myelogenous leukaemia)" recorded_endpoint=IC50 experimental_value="10 to 25 µM"
compound=O=C(/C(=C\c1ccc(F)c([N+](=O)[O-])c1)SCc1ccc(F)cc1)c1ccc(OCCCN2CCOCC2)cc1 measurement_target="K562 (chronic myelogenous leukaemia)" recorded_endpoint=IC50 experimental_value="1 to 10 µM"
compound=O=C(C(=Cc1ccc(F)c([N+](=O)[O-])c1)SCc1ccc(Br)cc1)c1ccc(C(=O)N2CCN(c3ccc(C(F)(F)F)cn3)CC2)cc1 measurement_target="K562 (chronic myelogenous leukaemia)" recorded_endpoint=IC50 experimental_value="1 to 10 µM"

====

Test system: K562 (chronic myelogenous leukaemia)
Test: Effect of compounds on tumor cell lines (assay of Latham et al.), K562
Format: cell-based
Details: K562 cells, 96 hours after treatment, 1 μM to 100 μM; read-out: K 562 potency (IC50)
pIC50: −log10 of the molar value.
recorded endpoint: pIC50

compound="O=C(C(=Cc1ccc(OCc2ccccc2)cc1)SCc1ccc(Cl)cc1)c1ccc(Cl)cc1 [Example 212]" experimental_value="4.60 to 5.00"
compound="O=C(O)c1ccc(C(=O)C(=Cc2ccc(Br)c([N+](=O)[O-])c2)SCc2ccccc2Cl)cc1 [Example 302]" experimental_value="5.00 to 6.00"
compound="CN(C)c1ccc(/C=C(/SCc2ccc(Br)cc2)C(=O)c2ccc(C(=O)O)cc2)cc1 [Example 164]" experimental_value="4.30 to 4.60"
compound="O=C(O)c1ccc(C(=O)/C(=C\\c2ccc(Cl)c([N+](=O)[O-])c2)SCc2ccc(C(F)(F)F)cc2)cc1 [Example 350]" experimental_value="5.00 to 6.00"
compound="Cc1ccsc1C=C(SCc1ccc(Cl)cc1)C(=O)c1ccc(Cl)cc1 [Example 206]" experimental_value="4.00 to 4.30"
compound="CN1CCN(CCNC(=O)c2ccc(C(=O)C(=Cc3ccc(F)c([N+](=O)[O-])c3)SCc3ccc(Br)cc3)cc2)CC1 [Example 311]" experimental_value="≥ 6.00"
compound="COc1cc(OC)c(C=C(SCc2ccc(F)cc2)C(=O)c2ccc(Br)cc2)c(OC)c1 [Example 233]" experimental_value="5.00 to 6.00"
